Record form. Attribute: melting point. Fill in for each entry.

* CNC(=O)c1ccc2c(c1)C(c1ncnc3cc(OCCCN4CCOCC4)ccc13)C(=O)N2 (stereo not shown) | 195 to 198 °C

List the reported melting point of each compound below.
1. CN1CCN(CCCOc2ccc3c(C4C(=O)Nc5ccc(C#N)cc54)ncnc3c2)CC1.Cl.Cl (stereo not shown)
2. CN(C)C(=O)c1ccc2c(c1)C(c1ncnc3cc(OCCCN4CCOCC4)ccc13)C(=O)N2 (stereo not shown)
3. COc1cc2c(C3C(=O)Nc4c(F)cccc43)ncnc2cc1OCCCN1CCOCC1.Cl.Cl (stereo not shown)

Result:
1. 200 °C (dec.)
2. 167.5 to 168.7 °C
3. 211 to 214 °C
